Tested on: DeltatarO mutant
measurementDescription: S. aureus survival, RN4220 and DeltatarO strains – OD600, teichoic acid synthesis inhibitors, primary screen (AID 463173)
experimentalSetup: S. aureus RN4220 wild type/DeltatarO growth, OD600, 18 h, hits give low values, screened at 18.75 µg/mL (by protocol)
About 4,300 (8.3%) of roughly 52,000 compounds were called active. Many of the other results were omitted from the sample, so actives are more common in it than they were.
This listing pairs compounds with measured survival.
Your answer should be a plain number; it is taken to be in %.

# example entries with known answers
CCc1ccc(NC(=O)C(CC)n2c(=O)c(-c3ccccc3NC(C)=O)nc3ccccc32)cc1 (centres undefined) = 65
Cc1sc2ncn(CC(=O)N3CCN(c4ccccc4)CC3)c(=O)c2c1S(=O)(=O)N1CCN(c2ncccn2)CC1 = 126
COc1ccc(Cl)cc1NC(=O)Cn1c(=O)c(-c2ccccc2NC(C)=O)nc2ccccc21 = 103
Cn1ccc2c(OCC(=O)Nc3ccc(OC(F)(F)F)cc3)cccc2c1=O = 95
CC(=O)Nc1ccccc1-c1nc2ccccc2n(CC(=O)Nc2cccc(C(F)(F)F)c2)c1=O = 45
CC(=O)Nc1ccccc1-c1nc2ccccc2n(CC(=O)Nc2ccc(C)c(Cl)c2)c1=O = 101

Requested read-out: survival. Entry: Cc1ccc(Cl)cc1N1CCN(C(=O)Cn2cnc3sc(C)c(S(=O)(=O)N4CCC(C)CC4)c3c2=O)CC1 47

Requested read-out: survival. Entry: Cc1sc2ncn(CC(=O)N3CCN(c4cccc(Cl)c4)CC3)c(=O)c2c1S(=O)(=O)N1CCC(C)CC1 149

Requested read-out: survival. Entry: CCCCc1nn2c(C)c(-c3ccc(OCC)cc3)nc2s1 103

These data points were gathered from PubChem BioAssay AID463173.
